meta.source: patent US11566025B2

assay: in vitro; type: cell-based; conditions: African green monkey
Entries and their measured CC50 follow.
measurementLabel: CC50

{"columns": ["compound", "assayValue"],
 "data": [
  ["COc1cccc(NC(C(=O)c2nn(C)cc2-c2ccc(F)cc2)c2ccccc2)c1 (centres unmarked)", "> 120 µM"],
  ["COc1cccc(NC(C(=O)c2nn(C)cc2-c2ccccc2)c2ccc(F)cc2)c1 (centres unmarked)", "> 120 µM"],
  ["COc1cc(NC(C(=O)c2nn(C)cc2-c2ccccc2)c2ccc(C)cc2)cc(OC)c1 (centres unmarked)", "> 113 µM"],
  ["COc1cccc(NC(C(=O)c2c[nH]cc2-c2ccccc2)c2ccccc2)c1 (centres unmarked)", "10 µM"],
  ["COc1cc(NC(C(=O)N2CCCC2c2ccccc2)c2ccc(C)cc2)cc(OC)c1 (centres unmarked)", "> 116 µM"]
]}

* * *

experiment: in vitro; type: cell-based; conditions: African green monkey, CC50 (μM)

{"columns": ["compound", "CC50"],
 "data": [
  ["COc1cc(NC(C(=O)N2CCCC2c2ccccc2)c2ccc(C)cc2)cc(OC)c1 (stereo not drawn)", "> 116 µM"],
  ["COc1cccc(NC(C(=O)c2nn(C)cc2-c2cncnc2)c2ccc(C)cc2)c1 (stereo not drawn)", "> 120 µM"],
  ["COc1cccc(NC(C(=O)c2nn(C)cc2-c2ccccc2)c2cncc(F)c2)c1 (stereo not drawn)", "> 120 µM"],
  ["COc1cc(NC(C(=O)c2cn(C)c(Br)c2-c2ccccc2)c2ccccc2)cc(OC)c1 (stereo not drawn)", "> 99 µM"],
  ["COc1cccc(NC(C(=O)c2nn(C)cc2-c2ccccc2)c2ccccc2)c1 (stereo not drawn)", "> 125 µM"],
  ["COc1cccc(NC(C(=O)c2cscc2-c2ccccc2)c2ccccc2)c1 (stereo not drawn)", "> 125 µM"],
  ["COc1cccc(NC(C(=O)c2nn(C)cc2-c2ccc3c(c2)CCO3)c2ccc(OC)nc2)c1 (stereo not drawn)", "> 106 µM"],
  ["COc1cc(NC(C(=O)N2CCSCC2c2ccccc2)c2ccc(C)cc2)cc(OC)c1 (stereo not drawn)", "> 108 µM"],
  ["COc1cc(NC(C(=O)N2CCCCCC2c2ccccc2)c2ccc(C)cc2)cc(OC)c1 (stereo not drawn)", "> 109 µM"],
  ["COc1cccc(NC(C(=O)c2nn(C)cc2-c2ccncc2)c2ccc(C)cc2)c1 (stereo not drawn)", "> 121 µM"],
  ["COc1cccc(NC(C(=O)c2nn(C)cc2-c2cnn(C)c2)c2ccccc2)c1 (stereo not drawn)", "> 125 µM"],
  ["COc1cncc(NC(C(=O)c2nn(C)cc2-c2ccccc2)c2ccc(OC)nc2)c1 (stereo not drawn)", "> 116 µM"],
  ["COc1cccc(NC(C(=O)c2nn(C)cc2-c2c(C)noc2C)c2ccc(C)cc2)c1 (stereo not drawn)", "> 116 µM"],
  ["COc1cc(NC(C(=O)N2CCS(=O)(=O)CC2c2ccccc2)c2ccc(C)cc2)cc(OC)c1 (stereo not drawn)", "> 101 µM"],
  ["COc1cccc(NC(C(=O)c2nn(C)cc2-c2ccc(C)nc2)c2ccccc2)c1 (stereo not drawn)", "80 µM"],
  ["COc1cccc(NC(C(=O)c2nn(C)cc2-c2cccs2)c2ccc(OC)nc2)c1 (stereo not drawn)", "> 115 µM"],
  ["COc1cc(NC(C(=O)N2CCN(C)CC2c2ccccc2)c2ccc(C)cc2)cc(OC)c1 (stereo not drawn)", "> 99 µM"],
  ["COc1cccc(NC(C(=O)c2nn(C)cc2-c2ccc(C#N)cc2)c2cc3ccccn3n2)c1 (stereo not drawn)", "> 108 µM"]
]}

* * *

system: Vero-B cells; assay: in vitro; assay type: cell-based; settings: African green monkey

{"columns": ["molecule", "CC50"],
 "data": [
  ["COc1cccc(NC(C(=O)c2nn(C)cc2-c2ccccc2)c2ccc(F)cc2)c1 (centres unmarked) [CPD-008]", "> 120 µM"],
  ["COc1cc(NC(C(=O)N2CCCC2c2ccccc2)c2ccc(C)cc2)cc(OC)c1 (centres unmarked) [CPD-028]", "70 µM"],
  ["COc1cccc(NC(C(=O)c2nn(C)cc2-c2ccccc2)c2ccccc2)c1 (centres unmarked) [CPD-001]", "> 126 µM"],
  ["COc1cccc(NC(C(=O)c2nn(C)cc2-c2ccccc2)c2cc3ccccn3n2)c1 (centres unmarked) [CPD-013]", "> 114 µM"],
  ["COc1cccc(NC(C(=O)c2nn(C)cc2-c2ccccc2)c2cccnc2)c1 (centres unmarked) [CPD-003]", "104 µM"]
]}

* * *

Entries and their measured CC50 follow.
tested on: Vero-B cells; assay: in vitro; assay type: cell-based; conditions: African green monkey

{"columns": ["molecule", "CC50"],
 "data": [
  ["COc1cccc(NC(C(=O)c2nn(C)cc2-c2ccc(F)cc2)c2ccccc2)c1 (stereo not shown)", "> 120 µM"],
  ["COc1cc(NC(C(=O)c2cn(C)c(Br)c2-c2ccccc2)c2ccccc2)cc(OC)c1 (stereo not shown)", "> 99 µM"],
  ["COc1cccc(NC(C(=O)c2nn(C)cc2-c2ccccc2)c2cncc(F)c2)c1 (stereo not shown)", "> 120 µM"],
  ["COc1cc(NC(C(=O)c2nn(C)cc2-c2ccccc2)c2ccc(C)cc2)cc(OC)c1 (stereo not shown)", "> 113 µM"]
]}

* * *

Experiment: in vitro
Format: cell-based
Conditions: African green monkey, CC50 (μM)
Experimental: Potential cytotoxic effects of the compounds were evaluated in uninfected quiescent Vero-B or Vero-M cells. […] Following a 2-hour incubation period at 37° C., the optical density was determined at 498 nm. Cytotoxic activity was calculated using the following formula: % cell viability=100× (ODcompound/ODCC), where ODcompound and ODCC correspond to the optical density at 498 nm of the uninfected cell cultures treated with compound and that of uninfected, untreated cell cultures, respectively. […]

{"columns": ["compound", "CC50"],
 "data": [
  ["COc1cccc(NC(C(=O)c2nn(C)cc2-c2ccccc2)c2cc3ccccn3n2)c1 (stereo not shown)", "> 114 µM"],
  ["COc1cccc(NC(C(=O)c2nn(C)cc2-c2ccccc2)c2cnc(OC)cn2)c1 (stereo not shown)", "> 116 µM"],
  ["COc1cccc(NC(C(=O)c2nn(C)cc2-c2ccc(F)cc2)c2ccccc2)c1 (stereo not shown)", "> 120 µM"],
  ["COc1cccc(NC(C(=O)c2nn(C)cc2-c2ccc3scnc3c2)c2ccc(OC)nc2)c1 (stereo not shown)", "> 103 µM"],
  ["COc1cccc(NC(C(=O)c2nn(C)cc2-c2cccc(F)c2)c2ccccc2)c1 (stereo not shown)", "> 120 µM"],
  ["COc1cc(NC(C(=O)N2CCOCC2c2ccccc2)c2ccc(C)cc2)cc(OC)c1 (stereo not shown)", "> 112 µM"],
  ["COc1cc(NC(C(=O)c2nn(C)cc2-c2ccccc2)c2ccc(C)cc2)cc(OC)c1 (stereo not shown)", "> 113 µM"]
]}
